System: HEK293
Experiment: Effective dose required to inhibit beta-amyloid formation in a human kidney cell line (HEK 293)
Format: functional
Details: read-out: ED50 (the source's name)
Here, each record is paired with measured log10 EC50 data.
assay endpoint: log10 EC50 (log10 of the value in nM)

compound string: C#CC[C@@H](CO)NC(=O)[C@H](C)NC(=O)Cc1cc(F)cc(F)c1
reported measurement: 4.00
//
compound string: C[C@H](NC(=O)Cc1cc(F)cc(F)c1)C(=O)N[C@H](CO)CC1CCCCC1
reported measurement: 2.90
//
compound string: CCCC[C@H](NC(=O)[C@@H](C)NC(=O)Cc1cc(F)cc(F)c1)C(=O)OC
reported measurement: 3.97
//
compound string: C[C@H](NC(=O)Cc1cc(F)cc(F)c1)C(=O)N[C@H](CO)CCCc1ccccc1
reported measurement: 2.94
//
compound string: C[C@H](NC(=O)[C@@H](O)c1cc(F)cc(F)c1)C(=O)N[C@H](CO)CC1CCCCC1
reported measurement: 2.30
//
compound string: CCCC[C@@H](CO)NC(=O)[C@H](C)NC(=O)Cc1cc(F)cc(F)c1
reported measurement: 2.66

====

Tested on: HEK293
Test: Effective dose required to inhibit beta-amyloid formation in a human kidney cell line (HEK 293)
Assay type: functional
Details: read-out: ED50 (the source's name)
pEC50: −log10 of the molar value.
Here, each record is paired with measured pEC50 data.
assay endpoint: pEC50

compound: CCCC[C@H](CO)NC(=O)[C@H](C)NC(=O)Cc1cc(F)cc(F)c1
qualifier symbol: <
reported measurement: 4.54

compound: C[C@H](NC(=O)Cc1cc(F)cc(F)c1)C(=O)N[C@@H](c1ccccc1)[C@H](O)c1ccccc1
qualifier symbol: =
reported measurement: 5.46

compound: CCCC[C@H](NC(=O)[C@H](C)NC(=O)Cc1cc(F)cc(F)c1)C(=O)OC
qualifier symbol: =
reported measurement: 7.82

compound: CSCC[C@@H](CO)NC(=O)[C@H](C)NC(=O)[C@@H](O)c1cc(F)cc(F)c1
qualifier symbol: =
reported measurement: 6.02

compound: C[C@H](NC(=O)Cc1cc(F)cc(F)c1)C(=O)N[C@H](CO)Cc1ccccc1
qualifier symbol: =
reported measurement: 5.57

compound: CCCC[C@@H](CO)NC(=O)[C@H](C)NC(=O)[C@@H](O)c1cc(F)cc(F)c1
qualifier symbol: =
reported measurement: 6.22

compound: C#CC[C@@H](CO)NC(=O)[C@H](C)NC(=O)[C@@H](O)c1cc(F)cc(F)c1
qualifier symbol: =
reported measurement: 5.64

compound: C[C@H](NC(=O)Cc1cc(F)cc(F)c1)C(=O)N[C@H]1c2ccccc2C[C@H]1O
qualifier symbol: =
reported measurement: 6.20

compound: C[C@H](NC(=O)Cc1cc(F)cc(F)c1)C(=O)N[C@@H](C)[C@H](O)c1ccccc1
qualifier symbol: <
reported measurement: 5.00

compound: C[C@H](NC(=O)[C@@H](O)c1cc(F)cc(F)c1)C(=O)N[C@H](CO)CCc1ccccc1
qualifier symbol: =
reported measurement: 6.57

compound: C[C@H](NC(=O)Cc1cc(F)cc(F)c1)C(=O)N[C@H](C)[C@@H](O)c1ccccc1
qualifier symbol: <
reported measurement: 5.00

compound: C[C@H](NC(=O)Cc1cc(F)cc(F)c1)C(=O)N[C@@H](CO)c1ccccc1
qualifier symbol: <
reported measurement: 5.00

compound: C[C@H](NC(=O)[C@@H](O)c1cc(F)cc(F)c1)C(=O)N[C@H](CO)CCCc1ccccc1
qualifier symbol: =
reported measurement: 6.89

compound: COC(=O)C[C@@H](O)[C@H](Cc1ccccc1)NC(=O)[C@H](C)NC(=O)Cc1cc(F)cc(F)c1
qualifier symbol: <
reported measurement: 5.00

compound: C[C@H](NC(=O)Cc1cc(F)cc(F)c1)C(=O)NCCO
qualifier symbol: <
reported measurement: 5.00

compound: CSCC[C@@H](CO)NC(=O)[C@H](C)NC(=O)Cc1cc(F)cc(F)c1
qualifier symbol: =
reported measurement: 6.31

compound: C[C@H](NC(=O)Cc1cc(F)cc(F)c1)C(=O)NC1c2ccccc2C[C@@H]1O (single isomer, unassigned)
qualifier symbol: <
reported measurement: 5.00

compound: CCCC[C@H](CO)NC(=O)[C@H](C)NC(=O)[C@@H](O)c1cc(F)cc(F)c1
qualifier symbol: =
reported measurement: 4.61

compound: C[C@H](NC(=O)Cc1cc(F)cc(F)c1)C(=O)N[C@H](CO)c1ccccc1
qualifier symbol: =
reported measurement: 6.74
